- System: 323965-272-R-J2-PDC complex spheroid viability
- assayMethodText: Anticancer human tumor 323965-272-R-J2-PDC patient-derived pancreatic carcinoma cell line growth inhibition [CLK]
- recordedConditions: second compound 0.316 µM; first compound 3.16 µM; active compounds read low
valueType: viability, T/C (%)
Numbers only, in %.

Below, 2 molecules whose answers are already recorded.
COc1cccc2c1C(=O)c1c(O)c3c(c(O)c1C2=O)CC(O)(C(=O)CO)CC3OC1CC(N)C(O)C(C)O1 (stereo not given) + CN1CCN(c2cc(C(=O)Nc3cc4cc(-c5cnn(C)c5)ccc4cn3)ccn2)CC1 :: 5.8
CC(CO)NC(=O)c1cc(-c2ccc(Cl)cc2)nn(-c2cnn(C)c2)c1=O (stereo not given) + CN1CCN(c2cc(C(=O)Nc3cc4cc(-c5cnn(C)c5)ccc4cn3)ccn2)CC1 :: 28.2

Below is a list of molecules. For each, state its recorded viability, T/C.
1. CC(CO)NC(=O)c1cc(-c2ccc(Cl)cc2)nn(-c2cnn(C)c2)c1=O (stereo not given) + CNC(=O)c1ccc(Nc2nc(OC3CCCC3)c3c(-c4ccc5nc(C)oc5c4)c[nH]c3n2)c(OC)c1
2. Nc1ccn(C2OC(CO)C(O)C2(F)F)c(=O)n1 (stereo not given) + CNC(=O)c1ccc(Nc2nc(OC3CCCC3)c3c(-c4ccc5nc(C)oc5c4)c[nH]c3n2)c(OC)c1
3. C=CC(=O)N1CCN(c2nc(=O)n(-c3c(C)ccnc3C(C)C)c3nc(-c4c(O)cccc4F)c(F)cc23)C(C)C1 (stereo not given) + CNC(=O)c1ccc(Nc2nc(OC3CCCC3)c3c(-c4ccc5nc(C)oc5c4)c[nH]c3n2)c(OC)c1
4. COC1C=CCC(C)C(C)S(=O)(=O)NC(=O)c2ccc3c(c2)N(CC2CCC21)CC1(CCCc2cc(Cl)ccc21)CO3 (stereo not given) + CN1CCN(c2cc(C(=O)Nc3cc4cc(-c5cnn(C)c5)ccc4cn3)ccn2)CC1

1: 61; 2: 28.1; 3: 45.1; 4: 15.1

Below is a list of molecules. For each, state its recorded viability, T/C.
1. CC1(C)CCC(CN2CCN(c3ccc(C(=O)NS(=O)(=O)c4ccc(NCC5CCOCC5)c([N+](=O)[O-])c4)c(Oc4cnc5[nH]ccc5c4)c3)CC2)=C(c2ccc(Cl)cc2)C1 + CNC(=O)c1ccc(Nc2nc(OC3CCCC3)c3c(-c4ccc5nc(C)oc5c4)c[nH]c3n2)c(OC)c1
2. COc1cccc2c1C(=O)c1c(O)c3c(c(O)c1C2=O)CC(O)(C(=O)CO)CC3OC1CC(N)C(O)C(C)O1 (stereo not given) + CNC(=O)c1ccc(Nc2nc(OC3CCCC3)c3c(-c4ccc5nc(C)oc5c4)c[nH]c3n2)c(OC)c1
3. CC1COCCN1c1cc(C2(S(C)(=N)=O)CC2)nc(-c2ccnc3[nH]ccc23)n1 (stereo not given) + CN1CCN(c2cc(C(=O)Nc3cc4cc(-c5cnn(C)c5)ccc4cn3)ccn2)CC1
4. CC1COCCN1c1cc(C2(S(C)(=N)=O)CC2)nc(-c2ccnc3[nH]ccc23)n1 (stereo not given) + CNC(=O)c1ccc(Nc2nc(OC3CCCC3)c3c(-c4ccc5nc(C)oc5c4)c[nH]c3n2)c(OC)c1

47.3
13.4
17.4
37.4

----------
- System: 323965-272-R-J2-PDC complex spheroid viability
- assayMethodText: Anticancer human tumor 323965-272-R-J2-PDC cell line growth inhibition [CLK];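 also: spheroids exposed to agents for seven days before readout; percent of DMSO vehicle control wells so 100% = untreated growth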
- recordedConditions: second compound 0.0316 µM; first compound 0.003 µM; active compounds read low
valueType: viability, T/C (%)
One number for each entry, in %.

Below, 3 compounds whose answers are already recorded.
C=CC(=O)Nc1cc(Nc2nccc(-c3cn(C)c4ccccc34)n2)c(OC)cc1N(C)CCN(C)C + CN1CCN(c2cc(C(=O)Nc3cc4cc(-c5cnn(C)c5)ccc4cn3)ccn2)CC1 :: 86.8
C=CC(=O)Nc1cc(Nc2nccc(-c3cn(C)c4ccccc34)n2)c(OC)cc1N(C)CCN(C)C + CNC(=O)c1ccc(Nc2nc(OC3CCCC3)c3c(-c4ccc5nc(C)oc5c4)c[nH]c3n2)c(OC)c1 :: 110
CC(C)CC(NC(=O)C(Cc1ccccc1)NC(=O)c1cnccn1)B(O)O (centres undefined) + CN1CCN(c2cc(C(=O)Nc3cc4cc(-c5cnn(C)c5)ccc4cn3)ccn2)CC1 :: 67.1

I would be grateful if you could share the reported viability, T/C for CC(C)CC(NC(=O)C(Cc1ccccc1)NC(=O)c1cnccn1)B(O)O (centres undefined) + CNC(=O)c1ccc(Nc2nc(OC3CCCC3)c3c(-c4ccc5nc(C)oc5c4)c[nH]c3n2)c(OC)c1 .
57.1
